experiment: body weight reduction and feed intake over 24 hours after oral administration
Format: in vivo
condition.summary: oral administration to mice
No end group written: not given here. B38 = not defined here
Recorded Weight loss (%) compared to untreated group, one value per entry.
Number in %, nothing else.

[[record]]
substance = "Polypeptide SEQ ID NO 30: amylin derivative RCNTATCATQRLADFLLRHSSNNFGAIPSSTNVGSKTY (RCNTATCATQRLADFLRHSSNNFGAIPSSTNVGSKTY; Amylin derivative) [reference compound]"
readout_number = -1.17

[[record]]
substance = "Conjugate 33: polypeptide SEQ ID NO 24; biotin moiety B38 at K1 (K(B38)CNTATCATQRLANFLVHSSNNFGPILPPTNVGSNTY; ends and bridges not checked)"
readout_number = -4.07

[[record]]
substance = "Polypeptide SEQ ID NO 26: amylin derivative KCNTATCATQRLADFLLRHSSPNFGAIPSSTNVGSRTY (KCNTATCATQRLADFLRHSSPNFGAIPSSTNVGSRTY; Amylin derivative) [reference compound]"
readout_number = -3.13

[[record]]
substance = "Conjugate 61: polypeptide SEQ ID NO 24; biotin moiety B38 at K1; fatty acid moiety F11 at K1 (K(B38)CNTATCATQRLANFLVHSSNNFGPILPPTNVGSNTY; ends and bridges not checked; also: fatty acid F11 also at K1, attachment order not given here)"
readout_number = -2.96

[[record]]
substance = "Polypeptide SEQ ID NO 28: amylin derivative KCNTATCATQRLADFLLRHSSNNFGAIPSSTNVGSRTY (KCNTATCATQRLADFLRHSSNNFGAIPSSTNVGSRTY; Amylin derivative) [reference compound]"
readout_number = -1.11


Sample Polypeptide SEQ ID NO 24: amylin derivative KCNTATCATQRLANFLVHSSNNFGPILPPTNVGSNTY (Amylin derivative) [reference compound] — what was its Weight loss (%) compared to untreated group?
-2.63
